Source: patent EP4201483A1

Experiment: in vitro
Assay type: cell-based
Settings: human; 24h and 48h of exposure; MTT and resazurin; MM6, HEK293, HaCaT, HeLa, HT-29; read-out: cytotoxicity (viability), concentration
Measurement type: MCC

Which measured MCC value corresponds to "COC1=C2C[C@@H](C)C[C@H](OC)[C@H](O)[C@@H](C)/C=C(\C)[C@H](OC(N)=O)[C@@H](OC)/C=C\C=C(/C)C(=O)NC(=CC1=O)C2=O" ? ≤ 10 µM
